- assay: Ratio of drug distribution in mouse liver to drug distribution in mouse plasma measured after 3 hrs by UPLC-MS/MS analysis
- Assay type: ADME, cell-free
quantity: Kp at 3 h

input: Requested read-out: Kp at 3 h. Entry: `COC(=O)N[C@H](C(=O)N1CCC[C@H]1C(=O)Nc1ccc([C@@H]2CC[C@@H](c3ccc(NC(=O)[C@@H]4CCCN4C(=O)[C@@H](NC(=O)OC)[C@@H](C)OC)cc3)N2c2cc(F)c(N3CC[Si](C)(C)CC3)c(F)c2)cc1)[C@@H](C)OC`
output: 24.6

input: Requested read-out: Kp at 3 h. Entry: `COC(=O)N[C@H](C(=O)N1CCC[C@H]1c1nc2cc([C@@H]3CC[C@@H](c4cc5nc([C@@H]6CCCN6C(=O)[C@@H](NC(=O)OC)[C@@H](C)OC)[nH]c5cc4F)N3c3cc(F)c(N4CCC(c5ccc(F)cc5)CC4)c(F)c3)c(F)cc2[nH]1)[C@@H](C)OC`
output: 0.39

====

- assay: Volume of distribution in mouse at 2 mg/kg, iv by UPLC-MS/MS analysis
- Format: ADME, organism-based
- test conditions: in vivo
quantity: Vd
Form entry: enter the amount, then its unit.

input: Requested read-out: Vd. Entry: `COC(=O)N[C@H](C(=O)N1CCC[C@H]1C(=O)Nc1ccc([C@@H]2CC[C@@H](c3ccc(NC(=O)[C@@H]4CCCN4C(=O)[C@@H](NC(=O)OC)[C@@H](C)OC)cc3)N2c2cc(F)c(N3CC[Si](C)(C)CC3)c(F)c2)cc1)[C@@H](C)OC`
output: 1.56 L/kg

====

- assay: Drug distribution in rat liver at 10 mg/kg, po incubated for 3 hrs by UPLC-MS/MS analysis
- Format: ADME, organism-based
- test conditions: read-out: Drug uptake
quantity: concentration at 3 h (ng/g)
Report the value in ng/g with no unit label.

input: Requested read-out: concentration at 3 h. Entry: `COC(=O)N[C@H](C(=O)N1CCC[C@H]1c1nc2cc([C@@H]3CC[C@@H](c4cc5nc([C@@H]6CCCN6C(=O)[C@@H](NC(=O)OC)[C@@H](C)OC)[nH]c5cc4F)N3c3cc(F)c(N4CCC(c5ccc(F)cc5)CC4)c(F)c3)c(F)cc2[nH]1)[C@@H](C)OC`
output: 102

input: Requested read-out: concentration at 3 h. Entry: `COC(=O)N[C@H](C(=O)N1CCC[C@H]1C(=O)Nc1ccc([C@@H]2CC[C@@H](c3ccc(NC(=O)[C@@H]4CCCN4C(=O)[C@@H](NC(=O)OC)[C@@H](C)OC)cc3)N2c2cc(F)c(N3CC[Si](C)(C)CC3)c(F)c2)cc1)[C@@H](C)OC`
output: 1110

====

Give Kp at 24 h for every item shown.
- assay: Ratio of drug distribution in mouse liver to drug distribution in mouse plasma measured after 24 hrs by UPLC-MS/MS analysis
- Type: ADME, cell-free
Form rule: numeric answer, no unit written next to it.

input: Requested read-out: Kp at 24 h. Entry: `COC(=O)N[C@H](C(=O)N1CCC[C@H]1C(=O)Nc1ccc([C@@H]2CC[C@@H](c3ccc(NC(=O)[C@@H]4CCCN4C(=O)[C@@H](NC(=O)OC)[C@@H](C)OC)cc3)N2c2cc(F)c(N3CC[Si](C)(C)CC3)c(F)c2)cc1)[C@@H](C)OC`
output: 17.9

input: Requested read-out: Kp at 24 h. Entry: `COC(=O)N[C@H](C(=O)N1CCC[C@H]1c1nc2cc([C@@H]3CC[C@@H](c4cc5nc([C@@H]6CCCN6C(=O)[C@@H](NC(=O)OC)[C@@H](C)OC)[nH]c5cc4F)N3c3cc(F)c(N4CCC(c5ccc(F)cc5)CC4)c(F)c3)c(F)cc2[nH]1)[C@@H](C)OC`
output: 0.11

====

Give concentration at 3 h for every item shown.
- assay: Drug distribution in mouse liver at 10 mg/kg, po incubated for 3 hrs by UPLC-MS/MS analysis
- Assay type: ADME, organism-based
- test conditions: read-out: Drug uptake

input: Requested read-out: concentration at 3 h. Entry: `COC(=O)N[C@H](C(=O)N1CCC[C@H]1c1nc2cc([C@@H]3CC[C@@H](c4cc5nc([C@@H]6CCCN6C(=O)[C@@H](NC(=O)OC)[C@@H](C)OC)[nH]c5cc4F)N3c3cc(F)c(N4CCC(c5ccc(F)cc5)CC4)c(F)c3)c(F)cc2[nH]1)[C@@H](C)OC`
output: 193 ng/g

input: Requested read-out: concentration at 3 h. Entry: `COC(=O)N[C@H](C(=O)N1CCC[C@H]1C(=O)Nc1ccc([C@@H]2CC[C@@H](c3ccc(NC(=O)[C@@H]4CCCN4C(=O)[C@@H](NC(=O)OC)[C@@H](C)OC)cc3)N2c2cc(F)c(N3CC[Si](C)(C)CC3)c(F)c2)cc1)[C@@H](C)OC`
output: 1580 ng/g

====

Give Kp at 0.5 h for every item shown.
- assay: Ratio of drug distribution in rat liver to drug distribution in rat plasma measured after 0.5 hrs by UPLC-MS/MS analysis
- Assay type: ADME, cell-free
Form rule: numeric answer, no unit written next to it.

input: Requested read-out: Kp at 0.5 h. Entry: `COC(=O)N[C@H](C(=O)N1CCC[C@H]1C(=O)Nc1ccc([C@@H]2CC[C@@H](c3ccc(NC(=O)[C@@H]4CCCN4C(=O)[C@@H](NC(=O)OC)[C@@H](C)OC)cc3)N2c2cc(F)c(N3CC[Si](C)(C)CC3)c(F)c2)cc1)[C@@H](C)OC`
output: 2.7

input: Requested read-out: Kp at 0.5 h. Entry: `COC(=O)N[C@H](C(=O)N1CCC[C@H]1c1nc2cc([C@@H]3CC[C@@H](c4cc5nc([C@@H]6CCCN6C(=O)[C@@H](NC(=O)OC)[C@@H](C)OC)[nH]c5cc4F)N3c3cc(F)c(N4CCC(c5ccc(F)cc5)CC4)c(F)c3)c(F)cc2[nH]1)[C@@H](C)OC`
output: 1.5

====

- assay: AUC (0 to 48 hrs) in dog at 5 mg/kg, po by UPLC-MS/MS analysis
- Type: ADME, organism-based, Canis lupus familiaris
- Set-up: time < 48 hr, dose 5 mg/kg, route oral
- test conditions: in vivo
quantity: AUC

input: Requested read-out: AUC. Entry: `COC(=O)N[C@H](C(=O)N1CCC[C@H]1C(=O)Nc1ccc([C@@H]2CC[C@@H](c3ccc(NC(=O)[C@@H]4CCCN4C(=O)[C@@H](NC(=O)OC)[C@@H](C)OC)cc3)N2c2cc(F)c(N3CC[Si](C)(C)CC3)c(F)c2)cc1)[C@@H](C)OC`
output: 8020 ng·h/mL
